The following molecules are shown together with reported inhibition values.
biological target: Dual specificity tyrosine-phosphorylation-regulated kinase 1A (Homo sapiens) (UniProt Q13627); settings: at 1 µM
Description: GSK_PKIS: DYRK1A mean inhibition at 1 uM [Nanosyn]
Give the value, in units of %, as a plain number.

These recorded examples may help you get a feel for the data.
[
  {
    "Molecule": "COc1ccc2cc(-c3c(-c4ccncc4)nc(-c4ccc([S+](C)[O-])cc4C)n3C)ccc2c1 (stereo not given)",
    "Unit Abbrev": "%",
    "Obs Value": 7.26
  },
  {
    "Molecule": "Cc1ccc(C(=O)NC2CCC2)cc1-c1ccc(C(=O)NCC2CC2)cc1",
    "Unit Abbrev": "%",
    "Obs Value": 5.39
  },
  {
    "Molecule": "NS(=O)(=O)c1ccc(Nc2cc(-c3ccc(O)c(F)c3)n[nH]2)cc1",
    "Unit Abbrev": "%",
    "Obs Value": 4.89
  }
]

Quick one: inhibition of COc1ccc(-c2ccc3c(NC(=O)C4CC4)n[nH]c3n2)cc1 ? 1.49

Quick one: inhibition of COc1cc(Nc2ncc(-c3ccccc3)o2)cc(OC)c1OC ? 6.39

Quick one: inhibition of NS(=O)(=O)c1ccc(N/N=C2\C(=O)Nc3ccc(-c4cnco4)cc32)cc1 ? 81.2

Quick one: inhibition of O=C1Nc2ccccc2/C1=C/Nc1ccc(-n2cncn2)cc1 ? 14.3

Quick one: inhibition of c1ccc(Oc2ccc(Nc3ncc(-c4ccccc4)o3)cc2)cc1 ? 5.29

Quick one: inhibition of Fc1ccc(-c2ncn(CCCN3CCOCC3)c2-c2ccncc2)cc1 ? 0.01

Quick one: inhibition of NC(=O)Cc1ccccc1Oc1nccc(-c2c(-c3ccc(F)cc3)ncn2C2CCNCC2)n1 ? 5.44

Quick one: inhibition of Cc1nnc(-c2ccc(C)c(-c3ccc(C(=O)NCc4ccc(Cl)cc4)cc3)c2)o1 ? 0.5

Quick one: inhibition of CCc1ccc(Oc2nccc(-c3c(-c4ccc(F)cc4)ncn3C3CCNCC3)n2)cc1 ? 1.59

Quick one: inhibition of COc1cc2ncn(-c3cc(OCc4ccccc4C(F)(F)F)c(C(C)=O)s3)c2cc1OC ? 2.83

Quick one: inhibition of COc1cccc(-n2cnc3c(N/N=C/c4ccncc4)ncnc32)c1 ? 2.17

Quick one: inhibition of c1ccc(-c2n[nH]cc2-c2ccnc(-c3ccc(OCCN4CCOCC4)cc3)c2)nc1 ? 5.39

Quick one: inhibition of NC(=O)c1ccc(Oc2nccc(-c3c(-c4ccc(F)cc4)ncn3C3CCNCC3)n2)cc1 ? 5.23

Quick one: inhibition of COc1cc(C)c(N(C)C(=O)CN(C)C)cc1Nc1nc(Nc2cccc(F)c2C(N)=O)c2cc[nH]c2n1 ? 15.2

Quick one: inhibition of CCN(CC)Cc1ccc(Nc2nccc(-c3cnn4ncccc34)n2)cc1 ? 88

Quick one: inhibition of C[C@@H](Oc1cc(-n2cnc3ccc(OC4CCN(C)CC4)cc32)sc1C(N)=O)c1ccccc1Cl ? 0.72

Quick one: inhibition of Fc1ccc(-c2nc3n(c2-c2ccncc2)CCS3)cc1 ? 0.87

Quick one: inhibition of C[C@@H](Oc1cc(-n2cnc3ccc(OCC4CCN(C)CC4)cc32)sc1C(N)=O)c1ccccc1Cl ? 3.56

Quick one: inhibition of COc1ccc(C2=C(N3CCc4ccccc43)C(=O)NC2=O)cc1 ? 13

Quick one: inhibition of CCS(=O)(=O)c1ccc(OC)c(Nc2ncc(-c3cccc(-c4ccccc4F)c3)o2)c1 ? 26

Quick one: inhibition of O=C1Nc2ccc(I)cc2C1=Cc1cc(Br)c(O)c(Br)c1 ? 4.99

Quick one: inhibition of COc1ccc2cc(-c3c(-c4ccncc4)nc(-c4ccc(S(C)(=O)=O)cc4C)n3C)ccc2c1 ? 7.68

====

The following compounds are shown together with reported inhibition values.
test system: Tyrosine-protein kinase ABL1 (Homo sapiens), P00519 [H396P]; details: at 0.1 µM
Give the value, in units of %, as a plain number.

These recorded examples may help you get a feel for the data.
[
  {
    "Compound": "COc1ccc2cc(-c3c(-c4ccncc4)nc(-c4ccc([S+](C)[O-])cc4C)n3C)ccc2c1 (centres undefined)",
    "inhibition, %": 2.45
  },
  {
    "Compound": "O=C(NCC1CC1)c1ccc(-c2cccc(C(=O)NC3CC3)c2)cc1",
    "inhibition, %": 3.44
  },
  {
    "Compound": "CS(=O)(=O)CCNCc1cc(-c2cc3c(Nc4ccc(OCc5cccc(F)c5)c(Cl)c4)ncnc3s2)cs1",
    "inhibition, %": 4.45
  }
]

Quick one: inhibition of COc1cc2ncn(-c3cc(OCCc4ccccc4)c(C(N)=O)s3)c2cc1OC ? 2.33

Quick one: inhibition of COc1ccc2ncn(-c3cc(O[C@H](C)c4ccccc4Cl)c(C(N)=O)s3)c2c1 ? 3.99

Quick one: inhibition of c1ccc(Oc2ccc(Nc3ncc(-c4ccccc4)o3)cc2)cc1 ? 2.43

Quick one: inhibition of FC(F)(F)c1cccc(Nc2nccc(-c3cnn4nc(-c5ccccc5)ccc34)n2)c1 ? -0.38

Quick one: inhibition of NS(=O)(=O)c1ccc(N/N=C2\C(=O)Nc3ccc(-c4cnco4)cc32)cc1 ? 3.45

Quick one: inhibition of COc1ccc(-c2ccc3c(NC(=O)C4CC4)n[nH]c3n2)cc1 ? 3.91

Quick one: inhibition of Fc1ccc(-c2nc3n(c2-c2ccncc2)CCS3)cc1 ? 2.85

Quick one: inhibition of Nc1nccc(-c2c(-c3ccc(F)cc3)ncn2C2CCC(O)CC2)n1 (centres undefined) ? 3.86

Quick one: inhibition of Fc1ccc(-c2ncn(C3CCNCC3)c2-c2ccnc(Oc3ccc(F)c(F)c3)n2)cc1 ? 4

Quick one: inhibition of C[C@@H](Oc1cc(-n2cnc3ccc(OCC4CCN(C)CC4)cc32)sc1C(N)=O)c1ccccc1Cl ? 2.87

Quick one: inhibition of CCS(=O)(=O)c1ccc(OC)c(Nc2ncc(-c3cccc(-c4ccccc4F)c3)o2)c1 ? 34.5

Quick one: inhibition of COc1cccc(/C=N/Nc2ncnc3c2cnn3-c2cccc(OC)c2)c1 ? 9.64

Quick one: inhibition of COc1cc(Nc2ncc(-c3ccccc3)o2)cc(OC)c1OC ? 12.7

Quick one: inhibition of O=C(Nc1n[nH]c2cc(-c3ccccc3)ccc12)C1CC1 ? 20.2

Quick one: inhibition of O=C1Nc2ccc(I)cc2C1=Cc1cc(Br)c(O)c(Br)c1 ? 4.06

====

biological target: Tyrosine-protein kinase ABL1 (Homo sapiens); conditions: at 0.1 µM
Description: GSK_PKIS: ABL1 mean inhibition at 0.1 uM [Nanosyn]
The following molecules are shown together with reported inhibition values.
Give the value, in units of %, as a plain number.

These recorded examples may help you get a feel for the data.
[
  {
    "Compound String": "CN(C)CCCNc1nccc(-c2c(-c3ccc(F)cc3)nn3cc(C(F)(F)F)ccc23)n1",
    "inhibition, %": 2.04
  },
  {
    "Compound String": "Clc1ccc(CNc2nccc(-c3cnn4ncccc34)n2)cc1",
    "inhibition, %": 1.08
  }
]

Quick one: inhibition of C#Cc1cccc(Nc2ncnc3ccc(OCCCCNCCS(C)(=O)=O)cc23)c1 ? 8.05

Quick one: inhibition of c1ccc(Oc2ccc(Nc3ncc(-c4ccccc4)o3)cc2)cc1 ? 2.29

====

target: Ribosomal protein S6 kinase alpha-4 (Homo sapiens) (UniProt O75676); conditions: at 1 µM;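 further: mean inhibition of MSK2, GSK PKIS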
Sequence (O75676 whole entry, looked up): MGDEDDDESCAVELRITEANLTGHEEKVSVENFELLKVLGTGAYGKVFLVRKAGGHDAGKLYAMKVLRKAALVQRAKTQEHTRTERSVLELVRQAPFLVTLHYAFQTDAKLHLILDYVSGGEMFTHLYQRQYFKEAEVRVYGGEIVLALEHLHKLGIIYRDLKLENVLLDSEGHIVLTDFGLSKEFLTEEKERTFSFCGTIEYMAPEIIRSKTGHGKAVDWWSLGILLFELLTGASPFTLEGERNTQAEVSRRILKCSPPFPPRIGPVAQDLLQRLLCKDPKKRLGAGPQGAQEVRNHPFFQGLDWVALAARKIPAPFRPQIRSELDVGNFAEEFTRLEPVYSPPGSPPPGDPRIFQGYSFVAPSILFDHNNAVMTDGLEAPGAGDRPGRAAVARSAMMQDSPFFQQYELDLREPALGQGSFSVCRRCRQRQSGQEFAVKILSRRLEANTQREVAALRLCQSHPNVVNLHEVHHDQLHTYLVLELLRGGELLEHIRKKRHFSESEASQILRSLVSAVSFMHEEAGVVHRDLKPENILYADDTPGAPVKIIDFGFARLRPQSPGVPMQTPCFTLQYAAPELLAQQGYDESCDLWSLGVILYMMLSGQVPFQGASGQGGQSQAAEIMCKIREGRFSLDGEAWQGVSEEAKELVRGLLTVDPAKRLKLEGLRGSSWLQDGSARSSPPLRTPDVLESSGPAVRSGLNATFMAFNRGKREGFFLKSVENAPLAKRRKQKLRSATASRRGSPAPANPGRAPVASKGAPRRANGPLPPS
Readout Name: inhibition (%)
Give the value, in units of %, as a plain number.

Quick one: inhibition of Cc1ccc(NC(=O)c2ccoc2)cc1-c1ccc(C(=O)NCC2CC2)cc1 ? -0.44

====

The following molecules are shown together with reported inhibition values.
target: Serine/threonine-protein kinase pim-1 (Homo sapiens) (UniProt P11309); conditions: at 0.1 µM;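 further: reported value is the mean inhibition of PIM1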
Sequence (P11309 whole entry, looked up): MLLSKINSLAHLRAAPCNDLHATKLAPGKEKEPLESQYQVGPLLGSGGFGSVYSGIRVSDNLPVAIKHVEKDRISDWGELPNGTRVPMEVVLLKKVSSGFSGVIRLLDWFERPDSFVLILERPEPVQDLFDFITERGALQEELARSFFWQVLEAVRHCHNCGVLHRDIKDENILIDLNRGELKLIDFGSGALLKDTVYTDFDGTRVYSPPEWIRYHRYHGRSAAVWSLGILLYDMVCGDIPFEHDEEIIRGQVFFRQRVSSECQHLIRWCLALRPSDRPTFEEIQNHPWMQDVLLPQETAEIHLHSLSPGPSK
Give the value, in units of %, as a plain number.

These recorded examples may help you get a feel for the data.
[
  {
    "Compound String": "O=C(Nc1n[nH]c2cc(-c3cc(F)ccc3F)ccc12)C1CC1",
    "Readout Name": "inhibition",
    "Unit Abbrev": "%",
    "Obs Value": -0.51
  },
  {
    "Compound String": "CN(C)CCOc1ccc(-c2cc(-c3ccc4c(c3)CCC4=NO)c(-c3ccncc3)o2)cc1",
    "Readout Name": "inhibition",
    "Unit Abbrev": "%",
    "Obs Value": 0.55
  }
]

Now consider the entry below.
Quick one: inhibition of Fc1ccc(-c2ncn(C3CCNCC3)c2-c2ccnc(Oc3ccc(F)c(F)c3)n2)cc1 ? -1.11

====

The following compounds are shown together with reported inhibition values.
biological target: Tyrosine-protein kinase FRK (Homo sapiens) (UniProt P42685); conditions: at 0.1 µM;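 further: values are mean inhibition of PTK5 (FRK) kinase activity from the GSK PKIS screening set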
Sequence (P42685 whole entry): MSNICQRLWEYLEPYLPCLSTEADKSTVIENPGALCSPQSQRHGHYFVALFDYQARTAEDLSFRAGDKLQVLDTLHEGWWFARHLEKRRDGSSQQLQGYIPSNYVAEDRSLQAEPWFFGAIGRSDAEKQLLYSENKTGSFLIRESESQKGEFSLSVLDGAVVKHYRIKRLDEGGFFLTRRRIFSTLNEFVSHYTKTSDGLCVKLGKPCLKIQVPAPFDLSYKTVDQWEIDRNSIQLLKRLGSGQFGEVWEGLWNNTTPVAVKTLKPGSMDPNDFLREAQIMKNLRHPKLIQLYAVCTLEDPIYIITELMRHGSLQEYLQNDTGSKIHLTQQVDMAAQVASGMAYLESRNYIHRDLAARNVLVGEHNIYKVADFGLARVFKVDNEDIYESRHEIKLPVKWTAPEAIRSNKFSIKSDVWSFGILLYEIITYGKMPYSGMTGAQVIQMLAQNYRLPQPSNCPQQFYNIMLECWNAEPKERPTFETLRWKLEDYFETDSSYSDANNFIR
Give the value, in units of %, as a plain number.

[
  {
    "Compound": "Fc1ccc(-c2ncn(C3CCNCC3)c2-c2ccnc(Oc3ccc(Oc4ccccc4)cc3)n2)cc1",
    "Obs Value": 2.37
  },
  {
    "Compound": "O=C1NC(=O)C(c2cccc(Cl)c2)=C1Nc1ccc(Cl)c(C(=O)O)c1",
    "Obs Value": -0.46
  },
  {
    "Compound": "COc1cc2ncn(-c3cc(OCCc4ccccc4)c(C(N)=O)s3)c2cc1OC",
    "Obs Value": 0.72
  },
  {
    "Compound": "FC(F)(F)c1cccc(Nc2nccc(-c3cnn4nc(-c5ccccc5)ccc34)n2)c1",
    "Obs Value": 1.24
  }
]

Quick one: inhibition of COc1cc(Nc2ncc3c(C)nc(-c4cccc(C(F)(F)F)c4)n3n2)cc(OC)c1OC ? 1.36

Quick one: inhibition of Fc1ccc(-c2nc3n(c2-c2ccncc2)CCS3)cc1 ? 1.92

Quick one: inhibition of c1ccc(Oc2ccc(Nc3ncc(-c4ccccc4)o3)cc2)cc1 ? -0.25

Quick one: inhibition of CCc1cccc(CC)c1/C=C/c1cncc(C(=O)NC)c1 ? 0.72

Quick one: inhibition of NC(=O)c1cc(-c2ccc(F)cc2)cc(-c2ccncc2)c1N ? 1.66

Quick one: inhibition of C[C@@H](Oc1cc(-n2cnc3ccc(OC4CCN(C)CC4)cc32)sc1C(N)=O)c1ccccc1Cl ? 3.35
